Value source: ChEMBL document CHEMBL4665668

Test: AUC (0 to 24 hrs) in Wistar rat at 10 mg/kg, po measured up to 72 hrs by HPLC analysis
Assay type: ADME, organism-based
Set-up: route oral, dose 10 mg/kg, time 72 hrs
Details: in vivo

{"columns": ["Entry smiles", "AUC(0-t) at 72 h"],
 "data": [
  ["Fc1ccc(-c2nnc(N3CCN(c4ccccn4)CC3)o2)c(F)c1", "721 ng·h/mL"]
]}

###

Assay: Permeability of the compound in PBS/EtOH buffer (7:3) at 25 ug/ml after 18 hrs by PAMPA-BBB assay
Papp at 18 h, 25 ug/ml below 6 ×10⁻⁶ cm/s gives NOT MET; Papp at 18 h, 25 ug/ml at or above it gives MET.

{"columns": ["Entry smiles", "Class name"],
 "data": [
  ["FC(F)(F)c1ccc(-c2nnc(N3CCN(c4ccccn4)CC3)o2)cc1", "MET"],
  ["O=C(N/N=C/c1ccc(Br)cc1)N1CCN(c2ccccn2)CC1", "NOT MET"],
  ["O=C(N/N=C/c1ccc(F)cc1F)N1CCN(c2ccccn2)CC1", "NOT MET"],
  ["FC(F)(F)Oc1ccc(-c2nnc(N3CCN(c4ccccn4)CC3)o2)cc1", "MET"]
]}

###

Target: Acetylcholinesterase (Homo sapiens, UniProt P22303)
Sequence (P22303 whole entry): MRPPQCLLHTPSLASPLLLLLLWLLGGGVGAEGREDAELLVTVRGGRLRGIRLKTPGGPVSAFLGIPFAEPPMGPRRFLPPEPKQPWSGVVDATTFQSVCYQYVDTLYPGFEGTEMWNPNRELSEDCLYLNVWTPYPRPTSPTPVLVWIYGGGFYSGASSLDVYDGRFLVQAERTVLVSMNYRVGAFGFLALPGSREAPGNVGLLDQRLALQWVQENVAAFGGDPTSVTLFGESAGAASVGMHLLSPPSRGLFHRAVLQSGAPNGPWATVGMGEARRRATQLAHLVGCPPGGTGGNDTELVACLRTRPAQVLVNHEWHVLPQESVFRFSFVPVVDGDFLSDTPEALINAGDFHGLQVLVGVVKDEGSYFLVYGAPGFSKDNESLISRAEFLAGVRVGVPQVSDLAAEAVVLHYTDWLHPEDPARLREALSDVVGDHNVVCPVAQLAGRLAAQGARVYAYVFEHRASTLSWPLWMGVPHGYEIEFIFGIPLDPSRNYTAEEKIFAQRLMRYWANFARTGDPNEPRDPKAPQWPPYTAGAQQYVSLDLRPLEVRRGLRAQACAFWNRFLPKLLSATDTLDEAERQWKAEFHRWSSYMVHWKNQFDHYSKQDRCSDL
pIC50: −log10 of the molar value.
pIC50 below 6 gives 0; pIC50 at or above it gives 1.

{"columns": ["Entry smiles", "Class name"],
 "data": [
  ["COc1cc(/C=N/NC(=O)N2CCN(c3ccccn3)CC2)cc(OC)c1OC", 0],
  ["COc1cc(-c2nnc(N3CCN(c4ccccn4)CC3)o2)cc(OC)c1OC", 1],
  ["Cc1cccc(-c2nnc(N3CCN(c4ccccn4)CC3)o2)c1", 0],
  ["O=C(N/N=C/c1ccccc1O)N1CCN(c2ccccn2)CC1", 0],
  ["O=C(N/N=C/c1ccc(OC(F)(F)F)cc1)N1CCN(c2ccccn2)CC1", 0],
  ["Cc1ccc(/C=N/NC(=O)N2CCN(c3ccccn3)CC2)cc1", 0],
  ["Cc1cccc(/C=N/NC(=O)N2CCN(c3ccccn3)CC2)c1", 0],
  ["FC(F)(F)Oc1ccc(-c2nnc(N3CCN(c4ccccn4)CC3)o2)cc1", 1],
  ["O=C(N/N=C/c1ccc(O)cc1O)N1CCN(c2ccccn2)CC1", 0],
  ["O=C(N/N=C/c1ccc(F)cc1)N1CCN(c2ccccn2)CC1", 0],
  ["FC(F)(F)c1ccc(-c2nnc(N3CCN(c4ccccn4)CC3)o2)cc1", 1],
  ["c1ccc(-c2nnc(N3CCN(c4ccccn4)CC3)o2)cc1", 1],
  ["COc1cccc(/C=N/NC(=O)N2CCN(c3ccccn3)CC2)c1OC", 0],
  ["Clc1ccc(-c2nnc(N3CCN(c4ccccn4)CC3)o2)cc1", 1],
  ["O=C(N/N=C/c1ccc(Cl)cc1)N1CCN(c2ccccn2)CC1", 0],
  ["Fc1ccc(-c2nnc(N3CCN(c4ccccn4)CC3)o2)cc1", 1],
  ["O=[N+]([O-])c1ccc(-c2nnc(N3CCN(c4ccccn4)CC3)o2)cc1", 1],
  ["O=C(N/N=C/c1ccc(O)cc1)N1CCN(c2ccccn2)CC1", 0],
  ["O=C(N/N=C/c1ccc(Br)cc1)N1CCN(c2ccccn2)CC1", 1],
  ["O=C(N/N=C/c1ccccc1)N1CCN(c2ccccn2)CC1", 0],
  ["Brc1ccc(-c2nnc(N3CCN(c4ccccn4)CC3)o2)cc1", 1]
]}

###

Assay: Cmax in Wistar rat at 10 mg/kg, po measured up to 72 hrs by HPLC analysis
Format: ADME, organism-based
Design: route oral, time 72 hrs, dose 10 mg/kg
Settings: in vivo

{"columns": ["Entry smiles", "Cmax / ng/mL"],
 "data": [
  ["Fc1ccc(-c2nnc(N3CCN(c4ccccn4)CC3)o2)c(F)c1", 49.8]
]}

###

IC50, Beta-secretase 1 (Homo sapiens, UniProt P56817): measured values
Measured quantity: IC50 (nM)

{"columns": ["Entry smiles", "Measured quantity", "Result value"],
 "data": [
  ["COc1cc(/C=N/NC(=O)N2CCN(c3ccccn3)CC2)cc(OC)c1OC", "IC50", 4640],
  ["Oc1ccc(-c2nnc(N3CCN(c4ccccn4)CC3)o2)c(O)c1", "IC50", 382],
  ["Cc1ccc(-c2nnc(N3CCN(c4ccccn4)CC3)o2)cc1", "IC50", 2480],
  ["O=C(N/N=C/c1ccc(OC(F)(F)F)cc1)N1CCN(c2ccccn2)CC1", "IC50", 248],
  ["c1ccc(-c2nnc(N3CCN(c4ccccn4)CC3)o2)cc1", "IC50", 3220],
  ["Brc1ccc(-c2nnc(N3CCN(c4ccccn4)CC3)o2)cc1", "IC50", 126],
  ["FC(F)(F)c1ccc(-c2nnc(N3CCN(c4ccccn4)CC3)o2)cc1", "IC50", 465],
  ["Cc1cccc(-c2nnc(N3CCN(c4ccccn4)CC3)o2)c1", "IC50", 2640],
  ["O=C(N/N=C/c1ccc([N+](=O)[O-])cc1)N1CCN(c2ccccn2)CC1", "IC50", 2640],
  ["O=C(N/N=C/c1ccc(C(F)(F)F)cc1)N1CCN(c2ccccn2)CC1", "IC50", 1820],
  ["O=C(N/N=C/c1ccc(O)cc1)N1CCN(c2ccccn2)CC1", "IC50", 4680],
  ["O=C(N/N=C/c1ccccc1)N1CCN(c2ccccn2)CC1", "IC50", 7690]
]}

###

Assay: MRT in Wistar rat at 10 mg/kg, po measured up to 72 hrs by HPLC analysis
Type: ADME, organism-based
Settings: in vivo

{"columns": ["Entry smiles", "MRT / h"],
 "data": [
  ["Fc1ccc(-c2nnc(N3CCN(c4ccccn4)CC3)o2)c(F)c1", 18.4]
]}

###

Molecular target: Beta-secretase 1 (Homo sapiens, UniProt P56817)
Sequence (P56817 whole entry): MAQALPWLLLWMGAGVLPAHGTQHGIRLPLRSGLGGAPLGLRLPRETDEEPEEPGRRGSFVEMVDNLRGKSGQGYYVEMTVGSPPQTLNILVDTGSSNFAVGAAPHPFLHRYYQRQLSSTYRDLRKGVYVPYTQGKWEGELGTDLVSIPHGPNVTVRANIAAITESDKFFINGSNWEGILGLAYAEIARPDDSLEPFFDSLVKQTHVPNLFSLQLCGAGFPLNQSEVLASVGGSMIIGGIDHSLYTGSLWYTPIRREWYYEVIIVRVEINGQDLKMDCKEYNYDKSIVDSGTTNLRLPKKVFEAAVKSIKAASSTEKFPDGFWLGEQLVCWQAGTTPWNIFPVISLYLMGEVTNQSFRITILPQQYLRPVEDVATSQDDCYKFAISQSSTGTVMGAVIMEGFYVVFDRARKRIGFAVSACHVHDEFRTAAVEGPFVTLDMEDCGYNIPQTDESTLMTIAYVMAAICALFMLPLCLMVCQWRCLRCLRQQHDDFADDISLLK
pIC50: −log10 of the molar value.
Measured quantity: pIC50

{"columns": ["Entry smiles", "Measured quantity", "Result value"],
 "data": [
  ["COc1cc(-c2nnc(N3CCN(c4ccccn4)CC3)o2)cc(OC)c1OC", "pIC50", 5.49],
  ["O=C(N/N=C/c1ccc(Br)cc1)N1CCN(c2ccccn2)CC1", "pIC50", 6.53],
  ["Fc1ccc(-c2nnc(N3CCN(c4ccccn4)CC3)o2)cc1", "pIC50", 5.83],
  ["O=C(N/N=C/c1ccc(Cl)cc1)N1CCN(c2ccccn2)CC1", "pIC50", 5.53],
  ["COc1cccc(-c2nnc(N3CCN(c4ccccn4)CC3)o2)c1OC", "pIC50", 5.67],
  ["Cc1cccc(/C=N/NC(=O)N2CCN(c3ccccn3)CC2)c1", "pIC50", 5.36]
]}

###

pIC50, Beta-secretase 1 (Homo sapiens, UniProt P56817): measured values
pIC50: −log10 of the molar value.

{"columns": ["Entry smiles", "pIC50"],
 "data": [
  ["FC(F)(F)Oc1ccc(-c2nnc(N3CCN(c4ccccn4)CC3)o2)cc1", 6.09],
  ["COc1cccc(/C=N/NC(=O)N2CCN(c3ccccn3)CC2)c1OC", 5.17],
  ["O=C(N/N=C/c1ccccc1O)N1CCN(c2ccccn2)CC1", 5.23],
  ["Cc1ccc(/C=N/NC(=O)N2CCN(c3ccccn3)CC2)cc1", 5.41],
  ["O=C(N/N=C/c1ccc(F)cc1)N1CCN(c2ccccn2)CC1", 5.91],
  ["Oc1ccc(-c2nnc(N3CCN(c4ccccn4)CC3)o2)cc1", 5.75],
  ["O=C(N/N=C/c1ccc(O)cc1O)N1CCN(c2ccccn2)CC1", 5.33],
  ["Oc1ccccc1-c1nnc(N2CCN(c3ccccn3)CC2)o1", 5.65],
  ["O=[N+]([O-])c1ccc(-c2nnc(N3CCN(c4ccccn4)CC3)o2)cc1", 5.87],
  ["Clc1ccc(-c2nnc(N3CCN(c4ccccn4)CC3)o2)cc1", 5.88],
  ["O=C(N/N=C/c1ccc(F)cc1F)N1CCN(c2ccccn2)CC1", 6.35]
]}

###

In this section we review reported MTD values for a set of molecules.
Assay: Acute toxicity in po dosed Wistar rat assessed as maximum tolerated dose by OCED guideline method
Format: organism-based
Settings: in vivo
Measured quantity: MTD

{"columns": ["Entry smiles", "Result value"],
 "data": [
  ["Fc1ccc(-c2nnc(N3CCN(c4ccccn4)CC3)o2)c(F)c1", "100 mg/kg"],
  ["Brc1ccc(-c2nnc(N3CCN(c4ccccn4)CC3)o2)cc1", "100 mg/kg"]
]}

###

Experiment: Tmax in Wistar rat at 10 mg/kg, po measured up to 72 hrs by HPLC analysis
Assay type: ADME, organism-based
Details: in vivo

{"columns": ["Entry smiles", "Tmax"],
 "data": [
  ["Fc1ccc(-c2nnc(N3CCN(c4ccccn4)CC3)o2)c(F)c1", "5.33 h"]
]}
